Assay: Inhibition of HIV-1 protease in a cell culture assay using HIV-1 IIIB infected H9 cells.
pIC50: −log10 of the molar value.
Label scheme for pIC50: lower than 6 is 0, 6 and above is 1.

Check if pIC50 >= 6 (inclusive). Item: CCC[C@@]1(CCc2ccccc2)CC(O)=C([C@H](CC)c2cccc(NS(=O)(=O)c3ccc(C#N)cn3)c2)C(=O)O1
1

Check if pIC50 >= 6 (inclusive). Item: CCC[C@@]1(CCc2ccccc2)CC(=O)C([C@@H](CC)c2cccc(NS(=O)(=O)c3ccc(C(F)(F)F)cn3)c2)=C(O)O1 (stereo in doubt; 39d)
1

Check if pIC50 >= 6 (inclusive). Item: CCC[C@@]1(CCc2ccccc2)CC(O)=C([C@H](CC)c2cccc(NS(=O)(=O)c3ccc(C(F)(F)F)cn3)c2)C(=O)O1
1

Check if pIC50 >= 6 (inclusive). Item: CCCC1(CCc2ccccc2)CC(=O)C(C(CC)c2cccc(NS(=O)(=O)c3ccccc3)c2)=C(O)O1 (stereo not drawn)
0

Check if pIC50 >= 6 (inclusive). Item: CCC[C@@]1(CCc2ccccc2)CC(=O)C([C@@H](CC)c2cccc(NS(=O)(=O)c3ccc(C(F)(F)F)cn3)c2)=C(O)O1 (stereo in doubt; 39c)
0
